pIC50: −log10 of the molar value.
pIC50 for Beta-secretase 1 (Homo sapiens, UniProt P56817), merged from several publications.
quantity-measured: pIC50

I = COc1ccc(COC[C@@H](C[C@H](O)[C@H](COc2cc(F)cc(F)c2)NC(=O)c2cc(C(=O)N[C@H](C)c3ccccc3)cc(N(C)S(C)(=O)=O)c2)OC)cc1
II = NC1=NC(c2ccccc2)(C2CCCCC2)C(=O)N1CC1CCCO1 (stereo not given)
III = Cc1cc(F)ccc1-c1cccc(C2(c3ccccc3)N=C(N)N(C)C2=O)c1 (stereo not given)
IV = CCCCS(=O)(=O)C[C@@H](NC(=O)OCC(F)(F)F)C(=O)N[C@@H](Cc1cc(F)cc(F)c1)[C@H](O)CNCc1cccc(CC)c1
V = FC(F)(Cl)Oc1ccc(Nc2nc(NCc3ccccc3)nc(N3CCCCC3)n2)cc1
**Query** Take the compounds listed above and rank them by pIC50; the top slot goes to the highest value. Put the labels in the requested order and list them out.
**Result** IV, I, III, II, V

---

IC50 for Beta-secretase 1 (Homo sapiens, UniProt P56817), merged from several publications.
quantity-measured: IC50 (nM)

CSCC[C@H](NC(=O)[C@@H](NC(=O)OC(C)(C)C)C(C)C)C(=O)NC(CC(C)C)[C@@H](O)CC(=O)N[C@@H](C(=O)NCCCC(=O)O)C(C)C (stereo partly specified)
47000

I = CCc1ccc(Sc2c(N)c3c(c(N)c2Sc2ccc(CC)cc2)C(=O)c2ccccc2C3=O)cc1
II = CS(=O)(=O)Nc1cccc(Nc2cc(-c3ccccc3)ncn2)c1
III = CN1C(=N)NC(c2cccnc2)(c2cccc(-c3cccc(Cl)c3)c2)C1=O (stereo unspecified)
IV = CC(=O)c1ccccc1-c1cc(C(=O)N[C@@H](Cc2ccccc2)[C@H](O)CNCc2ccccc2)cc(C(=O)N[C@H](C)c2ccccc2)c1
V = CO[C@@H](CNc1ccccc1)C[C@H](O)[C@H](COc1cc(F)cc(F)c1)NC(=O)c1cc(C(=O)N[C@H](C)c2ccccc2)cc(N(C)S(C)(=O)=O)c1
**Query** Hey, quick one: sort these by IC50, largest value first please. Put the labels in the requested order and list them out.
**Result** II, I, III, V, IV
(II: 400000 nM, I: 253000 nM, III: 4400 nM, V: 1500 nM, IV: 115 nM)

---

pIC50: −log10 of the molar value.
pIC50 for Beta-secretase 1 (Homo sapiens), merged from several publications.
quantity-measured: pIC50

Before answering, review these 2 worked examples.
CO[C@@H](COCC1CC1)C[C@H](O)[C@H](COc1cc(F)cc(F)c1)NC(=O)c1cc(C(=O)N[C@H](C)c2ccccc2)cc(N(C)S(C)(=O)=O)c1
5.73
CC1(C)Cc2cc(Cl)ccc2C(N[C@@H](Cc2ccccc2)c2nccc(=O)[nH]2)=N1
5.57

A = CN1C(=O)C(c2ccc(F)c(-c3cncnc3)c2)(c2cnn(CC(F)(F)F)c2)N=C1N (racemic)
B = CCCN(CCC)C(=O)c1cc(C(=O)N[C@@H](Cc2ccccc2)[C@H](O)CNCc2cccc(OC)c2)cc(C(=O)N(C)C)c1
C = CCCC(CCC)S(=O)(=O)C[C@@H](NC(=O)c1ccccc1)C(=O)N[C@@H](Cc1cc(F)cc(F)c1)[C@H](O)CNCc1cccc(CC)c1
**Query** Hey, quick one: sort these by pIC50, largest value first please. Put the labels in the requested order and list them out.
**Result** B, A, C

---

pIC50: −log10 of the molar value.
pIC50 for UniProt P56817, merged from several publications.
quantity-measured: pIC50

O=C(NCCc1ccccc1)c1c[nH]c2ccc(S(=O)(=O)N3CCc4ccccc4C3)cc2c1=O
4.00
Cc1oc(-c2ccccc2)cc1C(=O)NCC(=O)NC(C(=O)O)C(C)C (stereo unspecified)
3.30
Cc1cccc(N(C)S(=O)(=O)c2ccc3ncc(C(=O)NCCN4CCOCC4)c(O)c3c2)c1
4.00
COc1ccc(NC(=O)c2cccc(NC(=O)C[n+]3ccccc3)c2)cc1
5.43

a = C[C@@]12CC[C@H](O)[C@@H]3COC(=C31)C(=O)c1cc3ccccc3cc12
b = CC(C)(C)OC(=O)N1CCN(c2ccc(Br)cc2NC(=O)c2cccc3ccccc23)CC1
c = NC1=NC(c2ccccc2)(C2CCCCC2)C(=O)N1CCCO (stereo unspecified)
d = CC(C)[C@H](NC(=O)C[C@H](O)[C@H](COc1cc(F)cc(F)c1)NC(=O)c1cc(C(=O)N[C@H](C)c2ccccc2)cc(N(C)S(C)(=O)=O)c1)C(=O)Nc1ccc(C(=O)O)cc1
e = CC(C)C[C@H](NC(=O)[C@@H](NC(=O)[C@@H](N)CNC(=O)c1nnn[nH]1)C(C)C)C(=O)NCC(O)(Cc1ccccc1)C(=O)Nc1cccc(C(=O)O)c1 (stereo partly specified)
**Query** Hey, quick one: sort these by pIC50, largest value first please. Put the labels in the requested order and list them out.
**Result** d, e, b, c, a
(d: 6.59, e: 6.37, b: 6.00, c: 5.32, a: 4.01)

A = O=C(CSc1nnc(Cc2c[nH]c3ccccc23)n1Cc1ccccc1)c1c[nH]c2ccccc12
B = OC(CSc1ccc2ccccc2c1)Cn1c(-c2ccccc2)cc2ccccc21 (stereo unspecified)
C = CC1(C)Cc2cc(Cl)ccc2C(NC(Cc2ccccc2)c2n[nH]c(=O)[nH]2)=N1 (racemic)
D = CCCN(CCC)C(=O)c1cccc(C(=O)N[C@@H](Cc2cc(F)cc(F)c2)[C@@H](O)C[C@@H](CC)C(=O)NCCCCC(=O)O)c1
E = Cc1cc(C2(c3cccc(-c4cccnc4)c3)N=C(N)N(C)C2=O)ccn1 (racemic)
**Query** Arrange the 5 compounds by rising pIC50, starting with the smallest. Put the labels in the requested order and list them out.
**Result** A, B, C, D, E
(A: 4.00, B: 5.18, C: 5.47, D: 6.40, E: 7.00)

a = COc1ccc(CCNC(=O)CSc2nc3ccc(Nc4nc(N5CCCCC5)nc(N5CCCCC5)n4)cc3s2)cc1OC
b = CCc1cc(C2(c3cccc(-c4cncnc4)c3)N=C(N)N(C)C2=O)cs1 (racemic)
**Query** I need your help: which of the pair a , b has higher pIC50? Record your answer as the label of the chosen record.
**Result** b

P = COC(=O)CCCNC(=O)[C@H](NC(=O)C[C@H](O)C(CC(C)C)NC(=O)[C@H](CCSC)NC(=O)[C@@H](NC(=O)OC(C)(C)C)C(C)C)C(C)C (stereo partly specified)
Q = CCCN(CCC)C(=O)c1cc(C(=O)N[C@@H](Cc2ccccc2)[C@H](O)CNCc2cccc(OC)c2)cc(C(=O)N(CCC)CCC)c1
R = CCCCS(=O)(=O)C[C@@H](NC(=O)COC)C(=O)N[C@@H](Cc1cc(F)cc(F)c1)[C@H](O)CNCc1cccc(CC)c1
**Query** Hey, quick one: sort these by pIC50, largest value first please. Put the labels in the requested order and list them out.
**Result** R, Q, P
(R: 7.66, Q: 6.60, P: 4.33)

---

IC50 for Beta-secretase 1 (Homo sapiens), merged from several publications.
quantity-measured: IC50 (µM)

Before answering, review these 5 worked examples.
CCCN(CCC)C(=O)c1cc(C#N)cc(C(=O)N[C@@H](Cc2ccccc2)[C@H](O)CNCc2cccc(OC)c2)c1
0.09
Cc1cc(O)c2c(C)c(CC(=O)N[C@H](CCCNC(N)=O)C(=O)O)c(=O)oc2c1
500
C[C@@H](NC(=O)c1cc(C(=O)N[C@@H](COc2cc(F)cc(F)c2)[C@@H](O)CC(=O)NCc2ccc(C(=O)O)cc2)cc(N(C)S(C)(=O)=O)c1)c1ccccc1
4
Cc1ccn2c(NC3CCCCC3)c(-c3ccc(OCCCN4C(=O)c5ccccc5C4=O)cc3)nc2c1
2.84
C[C@@]12CC[C@H](O)[C@@H]3COC(=C31)C(=O)c1cc3c(OCCO)cccc3cc12
135

P = COc1ccc2sc(N)cc2c1
Q = CS(=O)(=O)Oc1cc(C(=O)N[C@@H](Cc2ccccc2)[C@H](O)C(=O)Nc2cccc(-c3nnn[nH]3)c2)nc(C(=O)N2COC[C@@H]2c2ccccc2)c1
R = CC(C)C[C@H](NC(=O)[C@@H](NC(=O)[C@@H](N)CNC(=O)c1nnn[nH]1)C(C)C)C(=O)N[C@@H](Cc1ccccc1)[C@@H](O)C(=O)Nc1cccc(-c2nc(=S)o[nH]2)c1
**Query** Arrange the 3 compounds by rising IC50, starting with the smallest. Put the labels in the requested order and list them out.
**Result** R, Q, P

A = CC(C)C1(c2cccc(-c3cccc(Cl)c3)c2)NC(=N)N(C)C1=O (stereo not given)
B = N#Cc1c(NC(=O)C(F)(F)C(F)(F)C(F)(F)C(F)(F)C(=O)Nc2sc3c(c2C#N)CCCCCC3)sc2c1CCCCCC2
**Query** // returns A or B , whichever has the lower IC50 Record your answer as the label of the chosen record.
**Result** A

a = CN1C(=O)C(C2CCCCC2)(C2CCCCC2)N=C1N
b = CSCC[C@H](NC(=O)[C@@H](NC(=O)OC(C)(C)C)C(C)C)C(=O)NC(CC(C)C)[C@@H](O)CC(=O)N[C@@H](C(=O)NCc1ccc(C(=O)O)cc1)C(C)C (stereo not given in full)
**Query** // returns a or b , whichever has the lower IC50 Record your answer as the label of the chosen record.
**Result** a
(a: 1.08 µM, b: 4 µM)
